target: T1, Rabbit skeletal myosin (rabbit); experiment: 'previously calculated Kd values'; row stands under the IC-50 head for stabilizers, read as labeled stabilizer; method and source of the myosin not stated
T1 construct: mature; also called rabbit whole skeletal myosin; rabbit skeletal myosin S2
T1 sequence (Q28641 whole entry, chain 1 of 3): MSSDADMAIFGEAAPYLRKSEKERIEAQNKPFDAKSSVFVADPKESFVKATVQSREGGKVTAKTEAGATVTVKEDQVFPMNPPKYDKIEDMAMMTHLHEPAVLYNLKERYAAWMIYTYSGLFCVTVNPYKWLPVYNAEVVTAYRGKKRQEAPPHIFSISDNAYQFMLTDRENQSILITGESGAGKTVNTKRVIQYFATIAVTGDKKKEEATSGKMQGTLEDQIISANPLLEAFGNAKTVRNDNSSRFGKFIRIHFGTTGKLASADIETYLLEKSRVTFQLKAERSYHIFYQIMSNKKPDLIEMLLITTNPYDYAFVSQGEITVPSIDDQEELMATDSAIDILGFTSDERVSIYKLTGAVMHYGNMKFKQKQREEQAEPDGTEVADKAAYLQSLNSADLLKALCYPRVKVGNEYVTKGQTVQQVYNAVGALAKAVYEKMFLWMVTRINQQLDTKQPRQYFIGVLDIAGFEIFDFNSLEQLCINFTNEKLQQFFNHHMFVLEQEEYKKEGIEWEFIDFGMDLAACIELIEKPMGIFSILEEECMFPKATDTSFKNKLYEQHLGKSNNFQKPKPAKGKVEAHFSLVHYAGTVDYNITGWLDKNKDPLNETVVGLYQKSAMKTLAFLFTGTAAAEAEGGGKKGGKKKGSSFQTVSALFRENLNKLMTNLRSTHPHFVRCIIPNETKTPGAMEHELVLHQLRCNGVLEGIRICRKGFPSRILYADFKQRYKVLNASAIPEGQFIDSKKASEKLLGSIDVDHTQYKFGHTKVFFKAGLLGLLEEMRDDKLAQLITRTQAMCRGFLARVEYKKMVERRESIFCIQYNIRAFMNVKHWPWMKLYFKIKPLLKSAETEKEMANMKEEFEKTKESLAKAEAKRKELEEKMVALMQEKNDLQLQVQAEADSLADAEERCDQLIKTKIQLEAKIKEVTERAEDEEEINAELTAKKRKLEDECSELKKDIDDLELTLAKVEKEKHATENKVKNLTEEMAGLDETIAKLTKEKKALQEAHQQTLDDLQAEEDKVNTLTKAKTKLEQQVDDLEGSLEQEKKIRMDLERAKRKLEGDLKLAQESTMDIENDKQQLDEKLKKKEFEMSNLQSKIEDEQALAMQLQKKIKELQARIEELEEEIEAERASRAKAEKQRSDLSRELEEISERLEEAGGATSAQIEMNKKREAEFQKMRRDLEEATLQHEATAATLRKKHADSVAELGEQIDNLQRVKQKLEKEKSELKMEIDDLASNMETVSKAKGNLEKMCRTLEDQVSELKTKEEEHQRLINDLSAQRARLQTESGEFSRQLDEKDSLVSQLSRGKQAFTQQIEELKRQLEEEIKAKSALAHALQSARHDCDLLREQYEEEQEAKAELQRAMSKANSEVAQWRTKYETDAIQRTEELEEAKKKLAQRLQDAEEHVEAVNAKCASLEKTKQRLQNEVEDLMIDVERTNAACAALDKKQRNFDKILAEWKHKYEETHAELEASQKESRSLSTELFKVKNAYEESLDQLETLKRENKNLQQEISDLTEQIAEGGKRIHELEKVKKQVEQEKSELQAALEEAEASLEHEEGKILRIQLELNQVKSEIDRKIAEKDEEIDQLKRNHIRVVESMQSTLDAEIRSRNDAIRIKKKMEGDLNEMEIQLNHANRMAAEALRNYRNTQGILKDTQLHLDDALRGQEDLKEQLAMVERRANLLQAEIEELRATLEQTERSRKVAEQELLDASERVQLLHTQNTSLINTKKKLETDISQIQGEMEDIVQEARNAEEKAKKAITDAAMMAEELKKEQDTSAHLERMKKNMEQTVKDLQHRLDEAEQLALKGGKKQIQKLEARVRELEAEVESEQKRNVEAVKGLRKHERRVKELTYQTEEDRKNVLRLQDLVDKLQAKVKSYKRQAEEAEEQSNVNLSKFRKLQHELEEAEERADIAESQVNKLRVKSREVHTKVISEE
T1 sequence (P02602 2-192, chain 2 of 3, further chain): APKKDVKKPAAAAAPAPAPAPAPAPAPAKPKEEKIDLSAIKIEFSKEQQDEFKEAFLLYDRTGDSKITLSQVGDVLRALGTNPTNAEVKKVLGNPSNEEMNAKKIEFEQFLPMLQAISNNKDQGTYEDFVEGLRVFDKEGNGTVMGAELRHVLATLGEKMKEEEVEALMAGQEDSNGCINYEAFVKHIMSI
T1 sequence (P02608 2-170, chain 3 of 3, further chain): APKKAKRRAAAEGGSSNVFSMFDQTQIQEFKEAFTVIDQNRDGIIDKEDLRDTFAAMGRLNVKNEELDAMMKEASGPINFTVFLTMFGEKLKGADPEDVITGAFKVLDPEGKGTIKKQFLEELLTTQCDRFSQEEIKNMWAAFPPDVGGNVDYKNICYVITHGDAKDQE
Where no end group is shown, it is not given here.
PROPERTY_LABEL: Kd (nM)
Supply the numeric figure in nM, leaving out any unit text.

Reported Kd, binder KKKKKKKKFKAKKKKKK (also: TRITC label, site not given here, also called labeled Stabilizer; fluorescently labelled stabilizer peptide) [TRITC (tetramethylrhodamine) labeled stabilizing peptide] : ____
330
